meta.source: patent US20250051347A1

Target Of Assay: androgen receptor (AR) splicing variant AR-v7 (Homo sapiens, UniProt P10275)
Construct: The degradation activity of compounds on AR-v7 in 22RV1 cells; host or cells: 22RV1 cells
Sequence (P10275 1-644 isoform P10275-3): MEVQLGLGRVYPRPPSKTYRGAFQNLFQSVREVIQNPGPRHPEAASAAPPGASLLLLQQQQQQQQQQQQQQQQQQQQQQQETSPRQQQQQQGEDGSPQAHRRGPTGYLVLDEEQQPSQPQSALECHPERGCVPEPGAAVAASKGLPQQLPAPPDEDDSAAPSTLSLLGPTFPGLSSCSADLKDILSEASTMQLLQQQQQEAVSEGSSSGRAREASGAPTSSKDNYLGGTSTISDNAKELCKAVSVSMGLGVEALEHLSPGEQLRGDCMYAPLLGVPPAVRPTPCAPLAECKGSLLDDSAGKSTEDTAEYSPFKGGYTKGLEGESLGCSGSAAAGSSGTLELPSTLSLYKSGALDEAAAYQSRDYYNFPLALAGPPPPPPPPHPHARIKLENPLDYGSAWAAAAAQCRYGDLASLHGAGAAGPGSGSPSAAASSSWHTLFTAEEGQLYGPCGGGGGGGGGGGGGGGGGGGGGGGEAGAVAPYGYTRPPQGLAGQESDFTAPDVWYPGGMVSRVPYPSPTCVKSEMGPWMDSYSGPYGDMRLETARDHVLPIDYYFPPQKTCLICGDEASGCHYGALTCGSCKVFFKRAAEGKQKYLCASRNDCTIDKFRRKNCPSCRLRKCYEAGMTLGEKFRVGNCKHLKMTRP
Protocol Description: Degradation activity on androgen receptor splicing variant AR-v7 in 22RV1 cells (ELISA)
Format: cell-based
Assay Setup: AR-v7 degradation in 22RV1 cells, 48 h, class symbols
Measured DC50 accompanies every entry in the list below.

Record excerpt, results attached:
Compound	Target Of Assay	DC50
CC(C)(c1ccc(OCc2cccc(-n3nccn3)n2)cc1)c1ccc(O[C@H]2C[C@H](Nc3ccc4c(c3)C(=O)N(C3CCC(=O)NC3=O)C4=O)C2)cc1 (stereo partly drawn)	androgen receptor (AR) splicing variant AR-v7 (Homo sapiens, UniProt P10275)	< 10 nM
COc1nccc(COc2ccc(C3(c4ccc(O[C@H]5C[C@H](Nc6ccc7c(c6)C(=O)N(C6CCC(=O)NC6=O)C7=O)C5)cc4)CCC3)cc2)n1 (stereo partly drawn)	androgen receptor (AR) splicing variant AR-v7 (Homo sapiens, UniProt P10275)	< 10 nM
O=C1CCC(N2C(=O)c3ccc(N[C@H]4C[C@H](Oc5ccc(Cc6ccc(Oc7cnc(-n8ccnn8)nc7)cc6)cc5)C4)cc3C2=O)C(=O)N1 (stereo partly drawn) [Example 521]	androgen receptor (AR) splicing variant AR-v7 (Homo sapiens, UniProt P10275)	11 to 100 nM
Cn1nccc1-c1nccc(COc2ccc(C(C)(C)c3ccc(O[C@H]4C[C@@H](Nc5ccc6c(c5)C(=O)N(C5CCC(=O)NC5=O)C6=O)C4)cc3)cc2)n1 (stereo partly drawn)	androgen receptor (AR) splicing variant AR-v7 (Homo sapiens, UniProt P10275)	11 to 100 nM
Cc1nnc(-c2nccc(COc3ccc(C(C)(C)c4ccc(O[C@H]5C[C@@H](Nc6ccc7c(c6)C(=O)N(C6CCC(=O)NC6=O)C7=O)C5)cc4)cc3)n2)o1 (stereo partly drawn)	androgen receptor (AR) splicing variant AR-v7 (Homo sapiens, UniProt P10275)	< 10 nM

# ---- query compound ----
Value of measured DC50 for the entry CC(C)(c1ccc(OCc2ccnc(N3CCOCC3)n2)cc1)c1ccc(OC2CC(Nc3ccc4c(c3)C(=O)N(C3CCC(=O)NC3=O)C4=O)C2)cc1 (stereo not drawn) [Example 396] : < 10 nM

====

Target Of Assay: androgen receptor (AR) splicing variant AR-v7 (Homo sapiens, UniProt P10275)
Construct: The degradation activity of compounds on AR-v7 in 22RV1 cells; host or cells: 22RV1 cells
Protocol Description: Degradation activity on androgen receptor splicing variant AR-v7 in 22RV1 cells (ELISA)
Type: cell-based
Assay Setup: AR-v7 degradation in 22RV1 cells, 48 h, class symbols
Consider the following molecules and their measured DC50 readings.

// below: answered molecules
Molecule	Target Of Assay	DC50
CC(C)(c1ccc(OCCCCCCCCOCCCCNc2ccc3c(c2)C(=O)N(C2CCC(=O)NC2=O)C3=O)cc1)c1ccc(OCc2ccnc(NS(C)(=O)=O)n2)cc1 (stereo not drawn) [Example 22]	androgen receptor (AR) splicing variant AR-v7 (Homo sapiens, UniProt P10275)	101 to 1000 nM
CC(C)(c1ccc(OCCCNc2ccc3c(c2)C(=O)N(C2CCC(=O)NC2=O)C3=O)cc1)c1ccc(OCc2ccnc(N)n2)cc1 (stereo not drawn) [Example 74]	androgen receptor (AR) splicing variant AR-v7 (Homo sapiens, UniProt P10275)	11 to 100 nM
CC(C)(c1ccc(OCc2ccnc(N3CCC4(CC3)CNC4)n2)cc1)c1ccc(O[C@H]2C[C@@H](Nc3ccc4c(c3)C(=O)N(C3CCC(=O)NC3=O)C4=O)C2)cc1 (stereo partly drawn) [Example 84]	androgen receptor (AR) splicing variant AR-v7 (Homo sapiens, UniProt P10275)	11 to 100 nM

Lab book: DC50 of CC(C)(c1ccc(OCc2ccnc(N3CC4(CNC4)C3)n2)cc1)c1ccc(O[C@H]2C[C@@H](Nc3ccc4c(c3)C(=O)N(C3CCC(=O)NC3=O)C4=O)C2)cc1 (stereo partly drawn) [Example 86] noted as 11 to 100 nM

// DC50 value for CC(C)(c1ccc(OCc2ccnc(N3CC4(COC4)C3)n2)cc1)c1ccc(OC2CC3(CC(Nc4ccc5c(c4)C(=O)N(C4CCC(=O)NC4=O)C5=O)C3)C2)cc1 (stereo not drawn) [Example 567] : 101 to 1000 nM

Entry under test: CCOc1nccc(COc2ccc(C(C)(C)c3ccc(OCCCNc4ccc5c(c4)C(=O)N(C4CCC(=O)NC4=O)C5=O)cc3)cc2)n1 (stereo not drawn) [Example 69] . Its DC50 was 11 to 100 nM

====

Target Of Assay: androgen receptor (AR) splicing variant AR-v7 (Homo sapiens)
Construct: The degradation activity of compounds on AR-v7 in 22RV1 cells; host or cells: 22RV1 cells
Protocol Description: Degradation activity on androgen receptor splicing variant AR-v7 in 22RV1 cells (ELISA)
Type: cell-based
Assay Setup: AR-v7 degradation in 22RV1 cells, 48 h, class symbols
Assay Endpoint: DC50

Compound	Recorded Value
CC(CNc1ccc2c(c1)C(=O)N(C1CCC(=O)NC1=O)C2=O)COc1ccc(C(C)(C)c2ccc(OCc3ccnc(N4CC5(COC5)C4)n3)cc2)cc1 (stereo not drawn)	< 10 nM
O=C1CCC(N2C(=O)c3ccc(N[C@H]4C[C@H](Oc5ccc(S(=O)(=O)c6ccc(OCc7ccnc(N8CC9(COC9)C8)n7)cc6)cc5)C4)cc3C2=O)C(=O)N1 (stereo partly drawn)	< 10 nM
Cc1nc(-c2ccc(Oc3ccc(C(C)(C)c4ccc(OC5CC(Nc6ccc7c(c6)C(=O)N(C6CCC(=O)N(C)C6=O)C7=O)C5)cc4)cc3)nn2)no1 (stereo not drawn)	101 to 1000 nM

Cc1nnc(-c2ncc(Oc3ccc(C(C)(C)c4ccc(O[C@H]5C[C@@H](Nc6ccc7c(c6)C(=O)N(C6CCC(=O)NC6=O)C7=O)C5)cc4)cc3)cn2)o1 (stereo partly drawn) yielded DC50 of 11 to 100 nM

Given item CC(C)(O)c1cncc(Oc2ccc(C(C)(C)c3ccc(O[C@H]4C[C@H](Nc5ccc6c(c5)C(=O)N(C5CCC(=O)NC5=O)C6=O)C4)cc3)cc2)n1 (stereo partly drawn) , the value recorded as its DC50 is < 10 nM

So, CC(=O)c1ncc(Oc2ccc(C(C)(C)c3ccc(OC[C@@H]4CCN4c4ccc5c(c4)C(=O)N(C4CCC(=O)NC4=O)C5=O)cc3)cc2)cn1 (stereo partly drawn) ? Its DC50 was 11 to 100 nM

====

Target Of Assay: androgen receptor (AR) splicing variant AR-v7 (Homo sapiens, UniProt P10275)
Construct: The degradation activity of compounds on AR-v7 in 22RV1 cells; host or cells: 22RV1 cells
Sequence (P10275 1-644 isoform P10275-3): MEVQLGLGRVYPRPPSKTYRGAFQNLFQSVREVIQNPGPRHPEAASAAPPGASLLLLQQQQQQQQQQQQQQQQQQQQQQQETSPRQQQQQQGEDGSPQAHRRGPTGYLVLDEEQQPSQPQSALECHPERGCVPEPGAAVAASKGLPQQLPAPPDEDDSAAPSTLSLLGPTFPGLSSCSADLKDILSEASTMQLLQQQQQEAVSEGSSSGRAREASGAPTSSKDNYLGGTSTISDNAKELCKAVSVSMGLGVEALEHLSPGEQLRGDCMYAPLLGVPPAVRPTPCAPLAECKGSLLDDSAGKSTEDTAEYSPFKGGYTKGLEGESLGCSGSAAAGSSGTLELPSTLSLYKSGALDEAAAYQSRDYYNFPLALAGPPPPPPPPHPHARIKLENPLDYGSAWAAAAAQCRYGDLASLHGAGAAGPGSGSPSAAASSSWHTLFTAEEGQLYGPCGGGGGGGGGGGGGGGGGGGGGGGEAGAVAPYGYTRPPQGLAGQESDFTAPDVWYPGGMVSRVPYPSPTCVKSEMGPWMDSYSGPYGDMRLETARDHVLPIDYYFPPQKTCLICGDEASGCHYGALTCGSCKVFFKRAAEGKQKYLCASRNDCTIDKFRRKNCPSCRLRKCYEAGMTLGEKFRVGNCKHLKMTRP
Protocol Description: Degradation activity on androgen receptor splicing variant AR-v7 in 22RV1 cells (ELISA)
Format: cell-based
Assay Setup: AR-v7 degradation in 22RV1 cells, 48 h, class symbols
This listing pairs molecules with measured DC50.

Use the examples below as a reference point.
Molecule	DC50
CC(C)(c1ccc(Oc2cccnn2)cc1)c1ccc(O[C@H]2C[C@H](Nc3ccc4c(c3)C(=O)N(C3CCC(=O)NC3=O)C4=O)C2)cc1 (some centres unmarked) [Example 333]	< 10 nM
Cc1nnc(-c2cnc(Oc3ccc(C(C)(C)c4ccc(O[C@H]5C[C@H](Nc6ccc7c(c6)C(=O)N(C6CCC(=O)NC6=O)C7=O)C5)cc4)cc3)o2)o1 (some centres unmarked) [Example 96]	< 10 nM
CCC(CC)(c1ccc(Oc2ccc(-c3noc(C)n3)nn2)cc1)c1ccc(O[C@H]2C[C@H](Nc3ccc4c(c3)C(=O)N(C3CCC(=O)NC3=O)C4=O)C2)cc1 (some centres unmarked) [Example 527]	< 10 nM
CC(O)c1cnc(Oc2ccc(C(C)(C)c3ccc(O[C@H]4C[C@@H](Nc5ccc6c(c5)C(=O)N(C5CCC(=O)NC5=O)C6=O)C4)cc3)cc2)cn1 (some centres unmarked) [Example 129]	11 to 100 nM

Switching to the query record.
Entry CC1(O)CN(c2nccc(COc3ccc(C(C)(C)c4ccc(O[C@H]5C[C@@H](Nc6ccc7c(c6)C(=O)N(C6CCC(=O)NC6=O)C7=O)C5)cc4)cc3)n2)C1 (some centres unmarked) [Example 455] , tested on androgen receptor (AR) splicing variant AR-v7 (Homo sapiens, UniProt P10275), has a reported DC50 of < 10 nM
